target: 5-HT2A receptor (UniProt P28223); assay: 5-HT2A receptor radioligand binding ([3H]ketanserin); conditions: read-out: Ki 5-HT2A, table does not say whether rat cortex or human recombinant (NIH3T3) receptor;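 further: competitive displacement binding on membranes, either from rat cerebral cortex or from NIH3T3 cells stably expressing human 5-HT2A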
propertyLabel: Ki (nM)

* CCC(CC)n1nc2c(c1-c1ccc(F)c(C)c1)CCNCC2 [Example 283] | 10
* CCC(C)n1nc2c(c1-c1ccc(C)cc1)CCNCC2 (stereo not shown) [Example 300] | 0.3
* CC(C)(C)n1nc2c(c1-c1ccc(F)cc1)CCNCC2 [Example 216] | 6
* Cc1ccc(-c2c3c(nn2C(C)C)CCNCC3)cc1 [Example 209] | 1.1
* Fc1ccc(Cn2nc(-c3ccc(Cl)cc3)c3c2CCNCC3)cc1 [Example 75] | 200
* CC(C)Cn1nc2c(c1-c1ccc(Cl)cc1)CCNCC2 [Example 131] | 7
* c1ccc(-c2c3c(nn2C2CCCCC2)CCNCC3)cc1 [Example 177] | 7
* CCC(C)n1nc2c(c1-c1ccccc1)CCNCC2 (stereo not shown) [Example 298] | 5
* CCC(CC)n1nc2c(c1-c1ccccc1)CCNCC2 [Example 186] | 1
* Fc1cc(-c2c3c(nn2C2CCCC2)CCNCC3)ccc1Cl [Example 241] | 9
* Fc1cccc(Cn2nc(-c3ccc(Cl)cc3)c3c2CCNCC3)c1 [Example 76] | 210
* Clc1ccc(-c2nn(Cc3ccccc3)c3c2CCNCC3)cc1 [Example 59] | 280
* Cc1ccc(-c2c3c(nn2C(C)C)CC(C)NCC3)cc1 (stereo not shown) [Example 315] | 9
* c1ccc(-c2c3c(nn2C2CCC2)CCNCC3)cc1 [Example 276] | 3
* Clc1ccc(-c2c3c(nn2C2CCC2)CCNCC3)cc1 [Example 238] | 1
* CCC(C)n1nc2c(c1-c1ccc(C(F)(F)F)cc1)CCNCC2 (stereo not shown) [Example 301] | 1.6
* Cc1ccc(-c2c3c(nn2C2CCCC2)CC(C)NCC3)cc1 (stereo not shown) [Example 310] | 0.2
* CCN1CCc2c(-c3ccc(Cl)cc3)nn(Cc3ccccc3)c2CC1 [Example 166] | 80
* CCC(CC)n1nc2c(c1-c1ccc(F)cc1)CCNCC2 [Example 184] | 1
* Fc1ccc(-c2c3c(nn2C2CCCC2)CCNCC3)cc1F [Example 236] | 7
* CCC(CC)n1nc2c(c1-c1cccc(F)c1)CCNCC2 [Example 183] | 7
* Oc1ccc(Cn2nc(-c3ccc(Cl)cc3)c3c2CCNCC3)cc1F [Example 160] | 300
* c1ccc(Cn2nc(-c3cccs3)c3c2CCNCC3)cc1 [Example 104] | 80
* N#Cc1ccc(-c2c3c(nn2C2CCC2)CCNCC3)cc1 [Example 280] | 1.5
* CN1CCc2nn(C3CCCC3)c(-c3ccc(F)cc3)c2CC1 [Example 302] | 0.2
* CC(C)n1nc2c(c1-c1ccc(Cl)cc1)CCNCC2 [Example 211] | 5
* CC1Cc2nn(C(C)C)c(-c3ccccc3)c2CCN1 (stereo not shown) [Example 311] | 140
* Clc1ccc(-c2c3c(nn2C2CCCCC2)CCNCC3)cc1 [Example 178] | 3
* N#Cc1ccc(-c2c3c(nn2C2CC2)CCNCC3)cc1 [Example 286] | 50
* CC1Cc2nn(C3CCCC3)c(-c3ccc(F)cc3)c2CCN1 (stereo not shown) [Example 308] | 2
* Cc1ccc(-c2c3c(nn2C2CCC2)CCNCC3)cc1 [Example 278] | 0.1
* c1csc(-c2c3c(nn2C2CCCC2)CCNCC3)c1 [Example 233] | 4
* CC1Cc2c(nn(C3CCCC3)c2-c2ccc(F)cc2)CCN1 (stereo not shown) [Example 309] | 30
* CCC(C)n1nc2c(c1-c1ccc(F)cc1)CCNCC2 (stereo not shown) [Example 299] | 1.7
* c1ccc(Cn2nc3c(c2-c2ccccc2)CCNCC3)cc1 [Example 133] | 2.3
* CC1Cc2nn(C(C)C)c(-c3ccc(F)cc3)c2CCN1 (stereo not shown) [Example 313] | 100
* Fc1ccc(-c2c3c(nn2C2CCCC2)CCNCC3)cc1 [Example 182] | 0.74
* FC(F)(F)c1ccc(-c2c3c(nn2C2CCC2)CCNCC3)cc1 [Example 279] | 0.8
* Clc1ccc(-c2nn(Cc3cccs3)c3c2CCNCC3)cc1 [Example 103] | 60
* CC(C)Cn1nc(-c2ccc(Cl)cc2)c2c1CCNCC2 [Example 118] | 20
